- SYSTEM TESTED: F508delCFTR (Homo sapiens, UniProt P13569, DEL508-508)
- Construct: expressed in transfected cells; host or cells: CFBE41o- human lung-derived epithelial cell line, doxycycline-inducible expression
- Sequence (P13569 with tags, fused parts or gaps DEL508-508): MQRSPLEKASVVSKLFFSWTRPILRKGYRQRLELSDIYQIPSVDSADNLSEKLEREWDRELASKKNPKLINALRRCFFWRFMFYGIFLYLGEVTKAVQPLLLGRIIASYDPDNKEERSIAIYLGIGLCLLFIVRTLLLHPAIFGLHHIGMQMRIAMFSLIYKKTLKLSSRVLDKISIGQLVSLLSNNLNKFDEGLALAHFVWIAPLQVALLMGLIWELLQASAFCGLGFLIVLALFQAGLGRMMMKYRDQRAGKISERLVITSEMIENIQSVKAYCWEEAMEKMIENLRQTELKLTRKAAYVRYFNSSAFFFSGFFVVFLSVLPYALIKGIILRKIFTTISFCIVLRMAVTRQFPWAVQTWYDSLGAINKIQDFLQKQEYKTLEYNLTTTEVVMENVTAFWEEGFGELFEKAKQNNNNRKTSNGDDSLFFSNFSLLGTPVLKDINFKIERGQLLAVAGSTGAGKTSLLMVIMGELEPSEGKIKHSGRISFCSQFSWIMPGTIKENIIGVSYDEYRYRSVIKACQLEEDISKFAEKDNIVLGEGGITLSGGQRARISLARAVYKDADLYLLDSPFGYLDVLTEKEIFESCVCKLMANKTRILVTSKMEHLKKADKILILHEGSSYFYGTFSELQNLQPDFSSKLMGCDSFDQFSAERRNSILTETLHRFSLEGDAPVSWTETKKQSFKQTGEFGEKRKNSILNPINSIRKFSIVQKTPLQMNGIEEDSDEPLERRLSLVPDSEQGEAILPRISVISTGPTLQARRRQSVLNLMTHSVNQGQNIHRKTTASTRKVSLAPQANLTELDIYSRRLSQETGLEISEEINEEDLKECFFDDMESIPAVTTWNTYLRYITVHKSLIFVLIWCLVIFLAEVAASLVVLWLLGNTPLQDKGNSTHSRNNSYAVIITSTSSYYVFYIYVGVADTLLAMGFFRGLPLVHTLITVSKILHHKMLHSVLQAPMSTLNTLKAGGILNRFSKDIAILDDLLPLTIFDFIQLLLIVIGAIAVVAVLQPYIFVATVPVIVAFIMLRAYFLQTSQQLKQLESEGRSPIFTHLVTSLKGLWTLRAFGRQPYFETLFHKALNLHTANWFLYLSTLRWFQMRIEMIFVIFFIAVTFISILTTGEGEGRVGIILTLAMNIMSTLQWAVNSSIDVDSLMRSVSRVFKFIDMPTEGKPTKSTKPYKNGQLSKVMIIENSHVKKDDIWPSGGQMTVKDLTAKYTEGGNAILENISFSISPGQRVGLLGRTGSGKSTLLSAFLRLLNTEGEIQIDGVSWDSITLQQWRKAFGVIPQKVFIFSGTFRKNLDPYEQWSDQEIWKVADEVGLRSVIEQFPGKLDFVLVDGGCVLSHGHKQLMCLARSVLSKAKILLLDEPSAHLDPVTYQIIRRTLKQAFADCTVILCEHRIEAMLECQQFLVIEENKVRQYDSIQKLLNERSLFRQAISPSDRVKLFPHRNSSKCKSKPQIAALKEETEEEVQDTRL
- ASSAY REMARKS: Cell Surface Expression-Horse Radish Peroxidase (CSE-HRP) assay in CFBE41o-F508delCFTR-HRP cells
- Type: cell-based
- MEASUREMENT PARAMETERS: without co-corrector; CFBE41o-F508delCFTR-HRP cells, 18-24 hours at 33° C., luminescence; read-out: EC50 (without co-corrector)
MEASURED METRIC: EC50 (nM)

Observe how each entry below is paired with its result.
- COMPOUND: "COc1ccc(C)cc1[C@@]1(C(=O)NS(=O)(=O)c2cccc3nc(C)ccc23)C[C@H]1c1cccc(F)c1 (racemic) [Example 8]"
  SYSTEM TESTED: "F508delCFTR (Homo sapiens, UniProt P13569, DEL508-508)"
  MEASURED METRIC: "EC50"
  REPORTED VALUE: 844
- COMPOUND: "CCOc1cnc([C@@H]2C[C@]2(C(=O)NS(=O)(=O)c2cccc3nc(C)ccc23)c2cc(C)ccc2OC)cn1 (racemic) [Example 62]"
  SYSTEM TESTED: "F508delCFTR (Homo sapiens, UniProt P13569, DEL508-508)"
  MEASURED METRIC: "EC50"
  REPORTED VALUE: 990

A = CCOc1ccc([C@@H]2C[C@]2(C(=O)NS(=O)(=O)c2cccc3nc(C)ccc23)c2cc(C)ccc2OC)cn1
B = COc1cnc([C@H]2C[C@@]2(C(=O)NS(=O)(=O)c2cccc3nc(C)ccc23)c2cc(C)ccc2OC)c(OC)n1
C = COc1cncc([C@@H]2C[C@]2(C(=O)NS(=O)(=O)c2cccc3nc(C)ccc23)c2cc(C)ccc2OC)c1 (racemic) [Example 41]
D = COc1cccc([C@@H]2C[C@]2(C(=O)NS(=O)(=O)c2cccc3nc(C)ccc23)c2cc(C)ccc2OC)c1 (single isomer, unassigned) [Example 27]
Request: Reorder: EC50, max to min. Please list the labels in the order you were asked to rank them.
Result: C, A, B, D
(C: 2980 nM, A: 1520 nM, B: 730 nM, D: 405 nM)

###

- SYSTEM TESTED: F508delCFTR (Homo sapiens, UniProt P13569, DEL508-508)
- Construct: expressed in transfected cells; host or cells: CFBE41o- human lung-derived epithelial cell line, doxycycline-inducible expression
- ASSAY REMARKS: Cell Surface Expression-Horse Radish Peroxidase (CSE-HRP) assay in CFBE41o-F508delCFTR-HRP cells
- Format: cell-based
- MEASUREMENT PARAMETERS: with co-corrector (2 μM); CFBE41o-F508delCFTR-HRP cells, 18-24 hours at 33° C., luminescence; read-out: EC50 (with co-corrector)
MEASURED METRIC: EC50 (µM)

See these solved cases before continuing.
- MOLECULE: "COc1ccc(C)cc1[C@@]1(C(=O)NS(=O)(=O)c2cccc3nc(C)ccc23)C[C@H]1c1ccc(C)cc1 (single isomer, unassigned) [Example 6]"
  SYSTEM TESTED: "F508delCFTR (Homo sapiens, UniProt P13569, DEL508-508)"
  UNIT NAME: "µM"
  EC50: 0.202
- MOLECULE: "COc1ccc([C@H]2C[C@@]2(C(=O)NS(=O)(=O)c2cccc3nc(C)ccc23)c2cc(C)ccc2OC)c(C)n1 [Example 72]"
  SYSTEM TESTED: "F508delCFTR (Homo sapiens, UniProt P13569, DEL508-508)"
  UNIT NAME: "µM"
  EC50: 1.54
- MOLECULE: "COc1ccc(C)cc1[C@]1(C(=O)NS(=O)(=O)c2cccc3nc(C)ccc23)CC1c1cccc(Cl)n1 (stereo in doubt) [Example 105]"
  SYSTEM TESTED: "F508delCFTR (Homo sapiens, UniProt P13569, DEL508-508)"
  UNIT NAME: "µM"
  EC50: 0.277
- MOLECULE: "COc1ccc(C)cc1[C@@]1(C(=O)NS(=O)(=O)c2cccc3nc(C)ccc23)C[C@H]1c1cnc(C)cn1 (single isomer, unassigned) [Example 91]"
  SYSTEM TESTED: "F508delCFTR (Homo sapiens, UniProt P13569, DEL508-508)"
  UNIT NAME: "µM"
  EC50: 4.34
- MOLECULE: "CCOc1cccc([C@@H]2C[C@]2(C(=O)NS(=O)(=O)c2cccc3nc(C)ccc23)c2cc(C)ccc2OC)n1 [Example 56]"
  SYSTEM TESTED: "F508delCFTR (Homo sapiens, UniProt P13569, DEL508-508)"
  UNIT NAME: "µM"
  EC50: 0.386
- MOLECULE: "COc1ccc(C)cc1[C@]1(C(=O)NS(=O)(=O)c2cccc3nc(C)ccc23)C[C@@H]1c1cccc(C(F)(F)F)c1 (single isomer, unassigned) [Example 23]"
  SYSTEM TESTED: "F508delCFTR (Homo sapiens, UniProt P13569, DEL508-508)"
  UNIT NAME: "µM"
  EC50: 0.259

a = COc1ccc(C)cc1[C@@]1(C(=O)NS(=O)(=O)c2cccc3nc(C)ccc23)C[C@H]1c1ccc(C(F)(F)F)cc1 (single isomer, unassigned) [Example 19]
b = COc1ccc(C)cc1[C@@]1(C(=O)NS(=O)(=O)c2cccc3nc(C)ccc23)C[C@H]1c1cncc(C)n1 (single isomer, unassigned) [Example 45]
Request: Of a and b , which shows the smaller EC50 value? State the label of the item chosen.
Result: a

###

- SYSTEM TESTED: F508delCFTR (Homo sapiens, UniProt P13569, DEL508-508)
- Construct: expressed in transfected cells; host or cells: CFBE41o- human lung-derived epithelial cell line, doxycycline-inducible expression
- ASSAY REMARKS: Cell Surface Expression-Horse Radish Peroxidase (CSE-HRP) assay in CFBE41o-F508delCFTR-HRP cells
- Type: cell-based
- MEASUREMENT PARAMETERS: with co-corrector (2 μM); CFBE41o-F508delCFTR-HRP cells, 18-24 hours at 33° C., luminescence; read-out: EC50 (with co-corrector)
MEASURED METRIC: EC50 (nM)

// solved cases for EC50 follow
- COMPOUND: "COc1ccc(C)cc1[C@@]1(C(=O)NS(=O)(=O)c2cccc3nc(C)ccc23)C[C@H]1c1ccc(C(C)C)nc1OC (single isomer, unassigned) [Example 87]"
  EC50 (nM): 165
- COMPOUND: "COc1ccc(C)cc1[C@]1(C(=O)NS(=O)(=O)c2cccc3nc(C)ccc23)C[C@@H]1c1cncc(C)n1 (single isomer, unassigned)"
  EC50 (nM): 1520
- COMPOUND: "COc1ccc([C@@H]2C[C@]2(C(=O)NS(=O)(=O)c2cccc3nc(C)ccc23)c2cc(C)ccc2OC)c(OC)n1 (single isomer, unassigned) [Example 93]"
  EC50 (nM): 132
- COMPOUND: "COc1ccc(C)cc1[C@@]1(C(=O)NS(=O)(=O)c2cccc3nc(C)ccc23)C[C@H]1c1cccnc1OC (racemic) [Example 40]"
  EC50 (nM): 749
- COMPOUND: "COc1ccc(C)cc1[C@@]1(C(=O)NS(=O)(=O)c2cccc3nc(C)ccc23)C[C@H]1c1ccccc1 (racemic) [Example 1]"
  EC50 (nM): 1430

a = COc1ccc(C)cc1[C@]1(C(=O)NS(=O)(=O)c2cccc3nc(C)ccc23)C[C@@H]1c1ccc(N(C)C)nc1
b = COc1ccc(C)cc1C1(C(=O)NS(=O)(=O)c2cccc3nc(C)ccc23)CC1c1ccc(C(F)(F)F)cc1 (racemic)
c = COc1ccc(C)cc1[C@@]1(C(=O)NS(=O)(=O)c2cccc3nc(C)ccc23)C[C@H]1c1cccc(F)c1 (single isomer, unassigned) [Example 21]
d = COc1ccc(C)cc1[C@]1(C(=O)NS(=O)(=O)c2cccc3nc(C)ccc23)C[C@@H]1c1cccc(C(F)F)n1
Request: Put the items in order so that reported EC50 rises from first to last. I would appreciate it if you listed the labels in the requested order.
Result: b, d, c, a

###

- SYSTEM TESTED: F508delCFTR (Homo sapiens, UniProt P13569, DEL508-508)
- Construct: expressed in transfected cells; host or cells: CFBE41o- human lung-derived epithelial cell line, doxycycline-inducible expression
- ASSAY REMARKS: Cell Surface Expression-Horse Radish Peroxidase (CSE-HRP) assay in CFBE41o-F508delCFTR-HRP cells
- Type: cell-based
- MEASUREMENT PARAMETERS: without co-corrector; CFBE41o-F508delCFTR-HRP cells, 18-24 hours at 33° C., luminescence; read-out: EC50 (without co-corrector)
pEC50: −log10 of the molar value.
MEASURED METRIC: pEC50

- COMPOUND: "COc1cccc([C@H]2C[C@@]2(C(=O)NS(=O)(=O)c2cccc3nc(C)ccc23)c2cc(C)ccc2OC)n1"
  SYSTEM TESTED: "F508delCFTR (Homo sapiens, UniProt P13569, DEL508-508)"
  MEASURED METRIC: "pEC50"
  REPORTED VALUE: 5.62
- COMPOUND: "COc1ccc(C)cc1[C@@]1(C(=O)NS(=O)(=O)c2cccc3nc(C)ccc23)C[C@H]1c1ccc(C(C)C)nc1OC (racemic) [Example 78]"
  SYSTEM TESTED: "F508delCFTR (Homo sapiens, UniProt P13569, DEL508-508)"
  MEASURED METRIC: "pEC50"
  REPORTED VALUE: 6.08
- COMPOUND: "COc1ncc([C@@H]2C[C@]2(C(=O)NS(=O)(=O)c2cccc3nc(C)ccc23)c2cc(C)ccc2OC)cn1 (single isomer, unassigned) [Example 37]"
  SYSTEM TESTED: "F508delCFTR (Homo sapiens, UniProt P13569, DEL508-508)"
  MEASURED METRIC: "pEC50"
  REPORTED VALUE: 5.14
- COMPOUND: "COc1nccc([C@@H]2C[C@]2(C(=O)NS(=O)(=O)c2cccc3nc(C)ccc23)c2cc(C)ccc2OC)n1 (single isomer, unassigned) [Example 99]"
  SYSTEM TESTED: "F508delCFTR (Homo sapiens, UniProt P13569, DEL508-508)"
  MEASURED METRIC: "pEC50"
  REPORTED VALUE: 5.40

1 = COc1ccc(C)cc1[C@]1(C(=O)NS(=O)(=O)c2cccc3nc(C)ccc23)C[C@@H]1c1cnc(C)cn1 (racemic) [Example 89]
2 = COc1ccc(C)cc1[C@]1(C(=O)NS(=O)(=O)c2cccc3nc(C)ccc23)C[C@@H]1c1cnc(OC)c(OC)n1
3 = COc1ccc(C)cc1[C@]1(C(=O)NS(=O)(=O)c2cccc3nc(C)ccc23)C[C@@H]1c1cnc(OC)c(C)c1
Request: Order by pEC50, ascending. Labels, requested order.
Result: 1, 2, 3
(1: 5.65, 2: 5.88, 3: 6.15)

a = COc1ccc(C)cc1[C@]1(C(=O)NS(=O)(=O)c2cccc3nc(C)ccc23)C[C@@H]1c1ccc(C)cc1 (single isomer, unassigned)
b = COc1ccc(C)cc1C1(C(=O)NS(=O)(=O)c2cccc3nc(C)ccc23)CC1c1ccc(C(F)(F)F)cc1 (racemic)
c = COc1ccc(C)cc1[C@@]1(C(=O)NS(=O)(=O)c2cccc3nc(C)ccc23)C[C@H]1c1cnc(C(C)C)cn1 (racemic) [Example 61]
Request: Rank ascending by pEC50. Please list the labels according to the requested order.
Result: c, a, b
